Kindly state Total Cell Count for each of the entries shown.
- Test system: Fibroblast
- experiment-description: Multiplex assay against human fibroblast
- Format: toxicity, cell-based
- condition-description: 12 h, 1 µM, compound concentration 1 uM, replicate 2
Lab note: jot the number down without any unit.

Name the reported Total Cell Count value associated with the molecule `N[C@@]1(C(=O)O)CO[C@H]2[C@H](C(=O)O)[C@H]21`
145

Name the reported Total Cell Count value associated with the molecule `CCNC1(C(N)=O)CCN(c2ncnc3c2nc(-c2ccccc2Cl)n3-c2ccc(Cl)cc2)CC1`
156

Name the reported Total Cell Count value associated with the molecule `Oc1c(CN2CCN(c3ccccn3)CC2)cc(Cl)c2cccnc12`
152

Name the reported Total Cell Count value associated with the molecule `CN(C)CCCc1cc(C(=O)Nc2ccc(-c3ccncc3)cc2)ccc1O.Cl.Cl`
120

Name the reported Total Cell Count value associated with the molecule `C[C@H]1[C@H]2CC[C@H]3[C@@H]4CC=C5C[C@@H](N(C)C)CC[C@]5(C)[C@H]4CC[C@]23CN1C`
101

Name the reported Total Cell Count value associated with the molecule `C[C@H](NC(=O)c1c(C(F)F)nn(C)c1Oc1cccc(C(F)(F)F)c1)c1ccc(C(=O)O)cc1`
148

Name the reported Total Cell Count value associated with the molecule Cc1ccc(C(C)(O)c2nc3ccccc3s2)c(C)c1 (configuration not stated)
180

Name the reported Total Cell Count value associated with the molecule `Cc1nc2ccc(Oc3ccc(F)cc3)cc2c(=O)n1C[C@H]1CCCN(C(C)C)C1.Cl`
111

Name the reported Total Cell Count value associated with the molecule `N#Cc1c(N)nc(SCc2csc(-c3ccc(Cl)cc3)n2)c(C#N)c1-c1ccc(OCCO)cc1`
157

Name the reported Total Cell Count value associated with the molecule `O=C1COc2nccc(-c3ccccc3F)c2CN1Cc1cc(C(F)(F)F)cc(C(F)(F)F)c1`
135

Name the reported Total Cell Count value associated with the molecule `CC[C@H]1OC(=O)[C@H](C)[C@@H](O[C@H]2C[C@@](C)(OC)[C@@H](O)[C@H](C)O2)[C@H](C)[C@@H](O[C@@H]2O[C@H](C)C[C@H](N(C)C)[C@H]2O)[C@@]2(C)CC(C)=C(O2)[C@H](C)[C@@H](O)[C@]1(C)O`
170

Name the reported Total Cell Count value associated with the molecule `COc1cc(NC(=O)CCN2CCC(OC(=O)Nc3ccccc3-c3ccccc3)CC2)c(Cl)cc1CNC[C@H](O)c1ccc(O)c2[nH]c(=O)ccc12`
124

Name the reported Total Cell Count value associated with the molecule CN1CCN2c3ncccc3Cc3ccccc3C2C1 (configuration not stated)
156

Name the reported Total Cell Count value associated with the molecule `O=C(O)c1cc2ccccc2c(Cc2c(O)c(C(=O)O)cc3ccccc23)c1O`
154

Name the reported Total Cell Count value associated with the molecule `O=C(NCCO)c1cccc(-c2cc(Nc3ccc(OC(F)(F)F)cc3)ncn2)c1`
149

Name the reported Total Cell Count value associated with the molecule `c1cc(OCCCN2CCCCC2)ccc1CN1CCCCC1`
153

Name the reported Total Cell Count value associated with the molecule Cc1ccccc1C(=O)Nc1ccc(C(=O)N2CCCC(N(C)C)c3ccccc32)cc1.Cl (configuration not stated)
155

###

- Tested on: U2OS
- experiment-description: Multiplex assay against U2OS
- Format: toxicity, cell-based
- condition-description: human, 48 h, 1 µM, compound concentration 1 uM, replicate 1
quantity: Population Apoptotic (%)
Give the number; % is assumed, so skip it.

Name the reported Population Apoptotic (%) value associated with the compound `CN(C)c1ccnc2sc3c(=O)n(N4CCCCCC4)cnc3c12`
90

Name the reported Population Apoptotic (%) value associated with the compound `COc1c(C)cc(NC(=O)c2nn(Cc3ccc(F)cc3)c3c2CN(C(=O)c2ccc[nH]2)C[C@]3(C)C(N)=O)cc1C`
79

Name the reported Population Apoptotic (%) value associated with the compound Cc1ccc(C(C)(O)c2nc3ccccc3s2)c(C)c1 (centres undefined)
88

Name the reported Population Apoptotic (%) value associated with the compound `O=C(NCC(=O)N1CC[C@H](N[C@H]2CC[C@@](O)(c3ccc(-c4ncccn4)cn3)CC2)C1)c1cccc(C(F)(F)F)c1`
87

Name the reported Population Apoptotic (%) value associated with the compound `CC1(COc2ccc3c(c2)ncn3-c2ccc3cccc(N4CCC(N)CC4)c3n2)COC1`
88

Name the reported Population Apoptotic (%) value associated with the compound `O=C(NCCO)c1cccc(-c2cc(Nc3ccc(OC(F)(F)F)cc3)ncn2)c1`
88

Name the reported Population Apoptotic (%) value associated with the compound `CN1CCN(c2nc3cc(C(F)(F)F)ccc3n3cccc23)CC1.O=C(O)/C=C\C(=O)O.O=C(O)/C=C\C(=O)O`
87

Name the reported Population Apoptotic (%) value associated with the compound `c1cc(OCCCN2CCCCC2)ccc1CN1CCCCC1`
82

Name the reported Population Apoptotic (%) value associated with the compound `COc1cc(NC(=O)CCN2CCC(OC(=O)Nc3ccccc3-c3ccccc3)CC2)c(Cl)cc1CNC[C@H](O)c1ccc(O)c2[nH]c(=O)ccc12`
82

Name the reported Population Apoptotic (%) value associated with the compound `CC(=O)NCCc1c(Cc2ccccc2)[nH]c2ccccc12`
91

Name the reported Population Apoptotic (%) value associated with the compound `Cc1nc2ccc(Oc3ccc(F)cc3)cc2c(=O)n1C[C@H]1CCCN(C(C)C)C1.Cl`
84

Name the reported Population Apoptotic (%) value associated with the compound CN1CCN2c3ncccc3Cc3ccccc3C2C1 (centres undefined)
83

Name the reported Population Apoptotic (%) value associated with the compound CSc1ccccc1N1CCN(CCCCCC(=O)NC2CCCc3ccccc32)CC1.Cl (centres undefined)
64

Name the reported Population Apoptotic (%) value associated with the compound CNC[C@H](O)c1ccc(O)c(O)c1 [EPINEPHRINE]
87

###

- Test system: U2OS
- experiment-description: Multiplex assay against U2OS
- Format: toxicity, cell-based
- condition-description: human, 48 h, 10 µM, compound concentration 10 uM, replicate 1
Kindly state Population Membrane Permeable-Phenotype (%) for each of the entries shown.
Give the number; % is assumed, so skip it.

For the record `COc1cc(NC(=O)CCN2CCC(OC(=O)Nc3ccccc3-c3ccccc3)CC2)c(Cl)cc1CNC[C@H](O)c1ccc(O)c2[nH]c(=O)ccc12` , what value of Population Membrane Permeable-Phenotype (%) is listed for U2OS?
31

For the record `CSCC[C@H](NC=O)C(=O)N[C@@H](CC(C)C)C(=O)N[C@@H](Cc1ccccc1)C(=O)O` , what value of Population Membrane Permeable-Phenotype (%) is listed for U2OS?
4

For the record `CC(C)(C)c1ccc(S(=O)(=O)Nc2ccc(Cl)cc2C(=O)c2cc[n+]([O-])cc2)cc1` , what value of Population Membrane Permeable-Phenotype (%) is listed for U2OS?
2

For the record O=S(=O)(c1ccccc1)c1cnc2c(N3CCNCC3)cccc2c1 [INTEPIRDINE] , what value of Population Membrane Permeable-Phenotype (%) is listed for U2OS?
15

For the record `N#Cc1c(N)nc(SCc2csc(-c3ccc(Cl)cc3)n2)c(C#N)c1-c1ccc(OCCO)cc1` , what value of Population Membrane Permeable-Phenotype (%) is listed for U2OS?
46

For the record `CC[C@H]1OC(=O)[C@H](C)[C@@H](O[C@H]2C[C@@](C)(OC)[C@@H](O)[C@H](C)O2)[C@H](C)[C@@H](O[C@@H]2O[C@H](C)C[C@H](N(C)C)[C@H]2O)[C@@]2(C)CC(C)=C(O2)[C@H](C)[C@@H](O)[C@]1(C)O` , what value of Population Membrane Permeable-Phenotype (%) is listed for U2OS?
58

For the record CNC[C@H](O)c1ccc(O)c(O)c1 [EPINEPHRINE] , what value of Population Membrane Permeable-Phenotype (%) is listed for U2OS?
15

###

- Tested on: HEK-293T
- experiment-description: Multiplex assay against HEK293T
- Type: toxicity, cell-based
- condition-description: human, 12 h, 10 µM, compound concentration 10 uM, replicate 1
We use 10% as the dividing line for Population Hoechst High Intensity Objects (%): on or above the line is fulfilled, below is not fulfilled.

Could you please find out whether `CC[C@H]1OC(=O)[C@H](C)[C@@H](O[C@H]2C[C@@](C)(OC)[C@@H](O)[C@H](C)O2)[C@H](C)[C@@H](O[C@@H]2O[C@H](C)C[C@H](N(C)C)[C@H]2O)[C@@]2(C)CC(C)=C(O2)[C@H](C)[C@@H](O)[C@]1(C)O` has Population Hoechst High Intensity Objects (%) that meets 10% or exceeds it?
fulfilled

Could you please find out whether Cc1ccc(C(C)(O)c2nc3ccccc3s2)c(C)c1 (stereo not drawn) has Population Hoechst High Intensity Objects (%) that meets 10% or exceeds it?
not fulfilled

Could you please find out whether `O=C(O)Cc1ccccc1Nc1c(Cl)cccc1Cl` has Population Hoechst High Intensity Objects (%) that meets 10% or exceeds it?
not fulfilled

Could you please find out whether CCCN1CCC[C@@H]2Cc3n[nH]cc3C[C@H]21.Cl [QUINPIROLE HYDROCHLORIDE] has Population Hoechst High Intensity Objects (%) that meets 10% or exceeds it?
not fulfilled

Could you please find out whether `COc1c(C)cc(NC(=O)c2nn(Cc3ccc(F)cc3)c3c2CN(C(=O)c2ccc[nH]2)C[C@]3(C)C(N)=O)cc1C` has Population Hoechst High Intensity Objects (%) that meets 10% or exceeds it?
fulfilled

Could you please find out whether CNC[C@H](O)c1ccc(O)c(O)c1 [EPINEPHRINE] has Population Hoechst High Intensity Objects (%) that meets 10% or exceeds it?
not fulfilled

Could you please find out whether `COc1ccccc1N1CCN(CCCCNC(=O)c2ccc3ccccc3c2)CC1.Cl` has Population Hoechst High Intensity Objects (%) that meets 10% or exceeds it?
fulfilled

Could you please find out whether `CCCn1c(=O)c2[nH]c(C3CCCC3)nc2n(CCC)c1=O` has Population Hoechst High Intensity Objects (%) that meets 10% or exceeds it?
not fulfilled

Could you please find out whether `Oc1c(CN2CCN(c3ccccn3)CC2)cc(Cl)c2cccnc12` has Population Hoechst High Intensity Objects (%) that meets 10% or exceeds it?
fulfilled

Could you please find out whether `CCNC1(C(N)=O)CCN(c2ncnc3c2nc(-c2ccccc2Cl)n3-c2ccc(Cl)cc2)CC1` has Population Hoechst High Intensity Objects (%) that meets 10% or exceeds it?
fulfilled

Could you please find out whether `COc1cc(NC(=O)CCN2CCC(OC(=O)Nc3ccccc3-c3ccccc3)CC2)c(Cl)cc1CNC[C@H](O)c1ccc(O)c2[nH]c(=O)ccc12` has Population Hoechst High Intensity Objects (%) that meets 10% or exceeds it?
fulfilled

Could you please find out whether `Cc1ccc(/C(=C\CN2CCCC2)c2ccccn2)cc1` has Population Hoechst High Intensity Objects (%) that meets 10% or exceeds it?
fulfilled

Could you please find out whether `COc1cc(C(=O)N(CCCc2ccccc2)Cc2ccc(CC(=O)O)cc2)cc(OC)c1C` has Population Hoechst High Intensity Objects (%) that meets 10% or exceeds it?
not fulfilled

Could you please find out whether `CCCC(CCC)C(=O)O` has Population Hoechst High Intensity Objects (%) that meets 10% or exceeds it?
not fulfilled

Could you please find out whether `N[C@@]1(C(=O)O)CO[C@H]2[C@H](C(=O)O)[C@H]21` has Population Hoechst High Intensity Objects (%) that meets 10% or exceeds it?
not fulfilled
